Use 20 °C as the dividing line for flash point, with the line itself on the T side and lower values as F.

compound | assigned-label
CC(C)=C(C)C | F
CCCC[N+](=O)[O-] | T
Cc1ccncc1 | T
CC(C)N | F
C=CC(=O)OC [methylacrylate] | F
CCCOC(=O)CC [propylpropanoate] | T
BrC1CCCC1 | T
CC(C)N(C=O)C(C)C [N,N-diisopropylformamide] | T
CC(C)=CC(C)(C)C | F
CC(C)(C)C(=O)OC(=O)C(C)(C)C [pivalicanhydride] | T
CCC(C)=O | F
O=C1CCCC1 | T
CCCCCCCCCCOC=O [decylformate] | T
CC(C)CCC(C)C | F
C=CCSCC [allylethylsulfide] | F
CCCCCC(C)C | F
Cc1ccccc1 | F
COC1C=CC(OC)O1 (configuration not stated) [2,5-dimethoxy-2,5-dihydrofuran] | T
CCCCCCCCCN | T
CCCCCCCCCCCCO | T
CCCC#CCCCCC | T
CC(C)(C)Nc1ccccc1 | T
NC1CCCC1 | F
CCCCCC(=O)OC [methylhexanoate] | T
CCCCCCCCC#N | T
CC(C)NC(C)C | F

---

Use 50 °C as the dividing line for flash point, with the line itself on the 1 side and lower values as -1.

compound | assigned-label
CCC(C)(C)CCl [1-Chloro-2,2-dimethylbutane] | -1
CCCCC(C)Cl (stereo not drawn) [2-Chlorohexane] | -1
CCCCC(Cl)CCCC [5-Chlorononane] | 1
CCCCCC(C)(C)Cl [2-Chloro-2-methylheptane] | -1
CCCCCCC(C)(Cl)CC (stereo not drawn) [3-Chloro-3-methylnonane] | 1
CCCCCCCCl [1-Chloroheptane] | -1
CCCCCCCCCl [1-Chlorooctane] | 1
CCC[C@H](Cl)CCCC(C)C [(S)-6-Chloro-2-methylnonane] | 1
CCCC(C)CCCl (stereo not drawn) [1-Chloro-3-methylhexane] | -1
CCCCCCCCCCCCCCCCCl [1-Chlorohexadecane] | 1
CCCC(C)CCl (stereo not drawn) [1-Chloro-2-methylpentane] | -1
CCCCC(C)(Cl)CC (stereo not drawn) [3-Chloro-3-methylheptane] | -1
CCCCCCCC(C)(C)Cl [2-Chloro-2-methylnonane] | 1

---

compound | flash point
CC(C)[O][Ge]([O]C(C)C)([O]C(C)C)[O]C(C)C [TETRAISOPROPOXYGERMANE] | 68.00 °C
[CH3][Ge]([CH3])([CH3])[CH](Cl)Cl [DICHLOROMETHYLTRIMETHYLGERMANE] | 33.00 °C
C=C[CH2][Ge]([CH2]C)([CH2]C)[CH2]C [ALLYLTRIETHYLGERMANE] | 48.00 °C
C[N](C)[Ge]([CH3])([CH3])[CH3] [DIMETHYLAMINOTRIMETHYLGERMANE] | -10.00 °C
C=C[CH2][Ge]([Cl])([Cl])[Cl] [ALLYLTRICHLOROGERMANE] | 55.00 °C
CCC[CH2][GeH]([CH2]CCC)[CH2]CCC [TRI-n-BUTYLGERMANE] | 78.00 °C
C[CH](C)[Ge]([Cl])([CH](C)C)[CH](C)C [TRIISOPROPYLCHLOROGERMANE] | 66.00 °C
[Cl][GeH]([Cl])[Cl] [TRICHLOROGERMANE] | 12.00 °C
CC[O][Ge]([O]CC)([O]CC)[O]CC [TETRAETHOXYGERMANE] | 62.00 °C
C[CH2][GeH]([CH2]C)[CH2]C [TRIETHYLGERMANE] | 5.00 °C
[CH3][Ge]([CH3])([CH3])[Cl] [TRIMETHYLCHLOROGERMANE] | 1.00 °C
C[CH2][Ge]([Cl])([Cl])[CH2]C [DIETHYLDICHLOROGERMANE] | 52.00 °C
CCC[CH2][Ge]([Cl])([Cl])[Cl] [n-BUTYLTRICHLOROGERMANE] | 82.00 °C
[CH3][Ge]([CH3])([CH3])[CH3] [TETRAMETHYLGERMANE] | -19.00 °C
C[CH2][Ge]([Cl])([CH2]C)[CH2]C [TRIETHYLCHLOROGERMANE] | 38.00 °C
CCC[CH2][Ge]([Cl])([CH2]CCC)[CH2]CCC [TRI-n-BUTYLCHLOROGERMANE] | 94.00 °C
CC[O][Ge]([CH3])([O]CC)[O]CC [METHYLTRIETHOXYGERMANE] | 40.00 °C
CCC[CH2][Ge]([CH2]CCC)([CH2]CCC)[CH2]CCC [TETRA-n-BUTYLGERMANE] | 90.00 °C
C=C[CH2][Ge]([CH2]C=C)([CH2]C=C)[CH2]C=C [TETRAALLYLGERMANE] | 70.00 °C

// data source = a flash point compilation (Sun et al. 2020)
